Listed here are compounds together with their documented IC50.
# measurement target: hα2A receptor (Homo sapiens)
# Construct: expressed in transfected cells; host or cells: CHO cells
# Sequence (P08913 whole entry): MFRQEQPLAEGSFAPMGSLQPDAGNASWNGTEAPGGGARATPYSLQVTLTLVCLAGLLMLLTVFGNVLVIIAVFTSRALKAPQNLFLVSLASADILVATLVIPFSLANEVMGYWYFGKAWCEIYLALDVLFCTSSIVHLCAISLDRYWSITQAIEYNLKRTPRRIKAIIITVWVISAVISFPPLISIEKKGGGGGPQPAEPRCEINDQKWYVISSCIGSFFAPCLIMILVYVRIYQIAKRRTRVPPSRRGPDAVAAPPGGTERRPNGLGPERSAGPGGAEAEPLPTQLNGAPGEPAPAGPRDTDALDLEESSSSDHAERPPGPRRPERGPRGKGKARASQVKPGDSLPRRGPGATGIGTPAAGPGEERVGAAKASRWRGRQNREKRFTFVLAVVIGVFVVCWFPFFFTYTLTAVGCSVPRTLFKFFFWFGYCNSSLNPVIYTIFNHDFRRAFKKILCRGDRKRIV
# test name: Radioligand binding experiment for α2A-adrenergic receptor ([3H]-raulwolscine)
# test conditions: CHO cell membranes with human α2A receptor, [3H]raulwolscine 1 nM; read-out: pIC50 α2A (converted)
Output spec: scalar in nM, unitless text.

Look over these answered cases.
CC(=Cc1ccc(F)cc1)CN1CCN(CC2ON=C3c4ccc(N(C)CCN(C)C)cc4OCC32)CC1 (stereo not shown) [Compound 23]: 10
COc1cc2c(cc1N(C)CCO)OCC1C2=NOC1CN1CCN(CC(C)=Cc2ccccc2)CC1 (stereo not shown) [Compound 32]: 3.98
CC(=Cc1ccccc1)CN1CCN(CC2ON=C3c4ccc(NC(=O)NC5CCCCC5)cc4OCC32)CC1 (stereo not shown) [Compound 62]: 25.1

Name the reported IC50 value associated with the compound CC(=Cc1ccc(F)cc1)CN1CCN(CC2ON=C3c4ccc(NC(N)=O)cc4OCC32)CC1 (stereo not shown) [Compound 137]
6.31

---

endpoint: melting point

Check out these entries, answers already filled in.
Clc1ccc(CN2CCN(CC3ON=C4c5cc6c(cc5OCC43)NCCO6)CC2)cc1 (centres unmarked) [Compound 94]: 186.5 to 198 °C
COc1cc2c(cc1NCCN1CCCC1)OCC1C2=NOC1CN1CCN(CC(C)=Cc2ccccc2)CC1 (centres unmarked) [Compound 26]: 120.4 to 123 °C
COc1cc2c(cc1NCCN(C)C)OCC1C2=NOC1CN1CCN(CC(C)=Cc2ccc(F)cc2)CC1 (centres unmarked) [Compound 24]: 157.7 to 159.9 °C
COCC(=O)N1CCOc2cc3c(cc21)OCC1C3=NOC1CN1CCN(C/C(C)=C/c2ccccc2)CC1 (centres unmarked) [Compound 15]: 118.9 to 127.6 °C
C/C(=C\c1ccc(F)cc1)CN1CCN(CC2ON=C3c4ccc(NS(=O)(=O)c5ccc(C)cc5)cc4OCC32)CC1 (centres unmarked) [Compound 3]: 177 to 194.1 °C
CC(=O)Nc1ccc2c(c1)OCC1C2=NOC1CN1CCN(C/C(C)=C/c2ccccc2)CC1 (centres unmarked) [Compound 6]: 112.1 to 126.7 °C

# melting point lookup, item C/C(=C\c1ccccc1)CN1CCN(CC2ON=C3c4cc(N5CCOCC5)ccc4OCC32)CC1 (centres unmarked) [Compound 4]
121.8 to 125.9 °C

Requested read-out: melting point. Entry: CC(=Cc1ccccc1)CN1CCN(CC2ON=C3c4ccc(Nc5ccc(C)c(C)c5)cc4OCC32)CC1 (centres unmarked) [Compound 46]
138.9 to 151.3 °C

---

# measurement target: h5-HT transporter (Homo sapiens, UniProt P31645)
# Sequence (P31645 whole entry): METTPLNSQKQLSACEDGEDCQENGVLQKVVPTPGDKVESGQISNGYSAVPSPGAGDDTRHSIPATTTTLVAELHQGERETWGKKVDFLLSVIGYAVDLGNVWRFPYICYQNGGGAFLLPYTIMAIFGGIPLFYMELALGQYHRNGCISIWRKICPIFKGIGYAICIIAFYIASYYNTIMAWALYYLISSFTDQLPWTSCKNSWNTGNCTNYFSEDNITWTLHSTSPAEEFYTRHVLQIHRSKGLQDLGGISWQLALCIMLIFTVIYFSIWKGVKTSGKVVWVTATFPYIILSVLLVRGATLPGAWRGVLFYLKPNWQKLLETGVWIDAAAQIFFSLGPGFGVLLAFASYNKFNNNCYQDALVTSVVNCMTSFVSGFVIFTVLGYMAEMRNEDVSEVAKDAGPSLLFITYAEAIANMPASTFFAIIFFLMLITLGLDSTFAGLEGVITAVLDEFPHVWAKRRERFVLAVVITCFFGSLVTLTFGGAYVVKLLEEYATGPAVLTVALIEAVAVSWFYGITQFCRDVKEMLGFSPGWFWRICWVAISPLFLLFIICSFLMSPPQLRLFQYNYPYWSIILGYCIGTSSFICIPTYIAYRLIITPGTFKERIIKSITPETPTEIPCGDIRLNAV
endpoint: pIC50
The read-out pIC50 is expressed as -log10 of concentration in moles per litre.

Some molecules with recorded pIC50:
CCC(C)Nc1cc2c(cc1OC)C1=NOC(CN3CCN(CC(C)=Cc4ccc(F)cc4)CC3)C1CO2 (stereo not drawn): 6.80
COc1ccc(Nc2ccc3c(c2)OCC2C3=NOC2CN2CCN(CC(C)=Cc3ccc(F)cc3)CC2)cc1 (stereo not drawn): 6.20

Param readout = pIC50; param system = h5-HT transporter (Homo sapiens, UniProt P31645); param query = CC(=Cc1ccccc1)CN1CCN(CC2ON=C3c4ccc(NC(=O)NC5CCCCC5)cc4OCC32)CC1 (stereo not drawn) ; response: value
7.40
